Tested on: barnyard grass seeds
Test: Petri dish seed germination method: inhibition of root and stem growth of barnyard grass
Type: in vivo
Settings: 1.25 mmol/L, 96 hours incubation
Please enter MET where inhibition rate on the stem growth of barnyard grass seeds is greater than or equal to 50%, and NOT MET where it is lower.

# example entries with known answers
- Cc1ccc(CNC(C)(C)[C@H]2CC[C@@](C)(NCc3ccc(C)o3)CC2)o1: NOT MET
- CC1(NCc2ccc(Br)o2)CCC(C(C)(C)NCc2ccc(Br)o2)CC1 (stereo not shown): NOT MET
- CC1(NCc2ccncc2)CCC(C(C)(C)NCc2ccncc2)CC1 (stereo not shown): MET
- CC1(NCc2cccs2)CCC(C(C)(C)NCc2cccs2)CC1 (stereo not shown): NOT MET
- CN(C)c1ccc(CNC2(C)CCC(C(C)(C)NCc3ccc(N(C)C)cc3)CC2)cc1 (stereo not shown): NOT MET
- CC(C)(NCc1ccccn1)[C@H]1CC[C@@](C)(NCc2ccccn2)CC1: NOT MET

Query: Exam item: decide whether the reported inhibition rate on the stem growth of barnyard grass seeds for CN(C)c1ccc(C=NC(C)(C)[C@H]2CC[C@@](C)(N=Cc3ccc(N(C)C)cc3)CC2)cc1 [reference compound] is at least 50%.
Response: NOT MET

Query: Exam item: decide whether the reported inhibition rate on the stem growth of barnyard grass seeds for CC1(NCc2ccc(F)cc2)CCC(C(C)(C)NCc2ccc(F)cc2)CC1 (stereo not shown) is at least 50%.
Response: MET

Query: Exam item: decide whether the reported inhibition rate on the stem growth of barnyard grass seeds for CSc1ccc(CNC2(C)CCC(C(C)(C)NCc3ccc(SC)cc3)CC2)cc1 (stereo not shown) is at least 50%.
Response: MET

Query: Exam item: decide whether the reported inhibition rate on the stem growth of barnyard grass seeds for CC1(NCc2ccc[nH]2)CCC(C(C)(C)NCc2ccc[nH]2)CC1 (stereo not shown) is at least 50%.
Response: NOT MET
